- MEASURED ON: panel of 255 wild-type kinases (Homo sapiens, UniProt P31751)
- Sequence (P31751 whole entry): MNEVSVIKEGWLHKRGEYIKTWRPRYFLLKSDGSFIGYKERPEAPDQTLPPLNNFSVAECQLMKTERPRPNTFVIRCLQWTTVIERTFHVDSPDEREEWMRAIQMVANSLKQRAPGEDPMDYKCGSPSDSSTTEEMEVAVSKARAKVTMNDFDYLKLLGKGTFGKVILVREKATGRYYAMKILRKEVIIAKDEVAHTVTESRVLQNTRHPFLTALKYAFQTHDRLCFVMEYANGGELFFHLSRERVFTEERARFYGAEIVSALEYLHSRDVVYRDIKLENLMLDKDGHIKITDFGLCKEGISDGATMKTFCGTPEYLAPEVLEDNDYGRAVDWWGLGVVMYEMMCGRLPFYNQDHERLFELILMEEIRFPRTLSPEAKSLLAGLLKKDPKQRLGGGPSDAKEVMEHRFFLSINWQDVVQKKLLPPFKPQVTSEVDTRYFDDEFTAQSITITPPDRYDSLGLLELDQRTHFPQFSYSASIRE
- EXPERIMENTAL DETAILS: Kinase panel profiling at 1 µmol/L (MSA or IMAP), percentage inhibition
- Assay type: biochemical
- CONDITION NOTES: AKT2 kinase assay; 1 µmol/L single concentration; read-out: %-inhibition AKT2
READOUT TYPE: inhibition at 1 µM (%)

Example entries begin here.
- INPUT SMILES: "Cn1cc(-c2cc3c(N4CCN(c5ncc([C@@](C)(N)c6ccc(F)cc6)cn5)CC4)ncnn3c2)cn1"
  inhibition at 1 µM / %: -0.192
- INPUT SMILES: "Cc1cc(Nc2ncnc3ccc(NC4=NC(C)(C)CO4)cc23)ccc1Oc1ccn2ncnc2c1"
  inhibition at 1 µM / %: -1.46
- INPUT SMILES: "COc1cc2ncnc(Nc3ccc(F)c(Cl)c3)c2cc1NC(=O)/C=C/CN1CCCCC1"
  inhibition at 1 µM / %: -1.19
- INPUT SMILES: "C=CC(=O)N1CCC([C@@H]2CCNc3c(C(N)=O)c(-c4ccc(Oc5ccccc5)cc4)nn32)CC1"
  inhibition at 1 µM / %: -4

a = CO[C@]1(C(=O)N[C@@H](C)c2ccc(-n3cc(F)cn3)nc2)CC[C@H](c2nc(C)cc(Nc3cc(C)[nH]n3)n2)CC1
b = Cn1cnc2c(F)c(Nc3ccc(Br)cc3F)c(C(=O)NOCCO)cc21
Prompt line: Which shows the larger inhibition at 1 µM value: a or b ? Let me know the label of the one you choose.
Response line: a

P = Cc1nc(NC(=O)N2CCC[C@H]2C(N)=O)sc1-c1ccnc(C(C)(C)C(F)(F)F)c1
Q = O=C(Nc1cnn2ccc(N3CCC[C@@H]3c3cc(F)ccc3F)nc12)N1CC[C@H](O)C1
Prompt line: Pick the one with the larger inhibition at 1 µM: P vs Q Use the label to indicate which entry you chose.
Response line: P
(P: -0.795%, Q: -5.27%)

Origin of values: paper PMC9516332
